Target: CDK1/B (Homo sapiens, UniProt P06493)
Sequence (P06493 whole entry, species assumed): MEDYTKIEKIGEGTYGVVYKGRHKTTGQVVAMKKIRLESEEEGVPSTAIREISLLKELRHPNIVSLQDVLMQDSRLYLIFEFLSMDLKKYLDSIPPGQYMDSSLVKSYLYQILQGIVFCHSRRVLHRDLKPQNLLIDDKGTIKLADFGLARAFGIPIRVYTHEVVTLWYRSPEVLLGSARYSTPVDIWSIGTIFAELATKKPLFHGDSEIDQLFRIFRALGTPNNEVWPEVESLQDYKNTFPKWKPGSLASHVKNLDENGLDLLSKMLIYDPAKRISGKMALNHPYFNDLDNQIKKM
Sequence (P14635 whole entry partner, species assumed): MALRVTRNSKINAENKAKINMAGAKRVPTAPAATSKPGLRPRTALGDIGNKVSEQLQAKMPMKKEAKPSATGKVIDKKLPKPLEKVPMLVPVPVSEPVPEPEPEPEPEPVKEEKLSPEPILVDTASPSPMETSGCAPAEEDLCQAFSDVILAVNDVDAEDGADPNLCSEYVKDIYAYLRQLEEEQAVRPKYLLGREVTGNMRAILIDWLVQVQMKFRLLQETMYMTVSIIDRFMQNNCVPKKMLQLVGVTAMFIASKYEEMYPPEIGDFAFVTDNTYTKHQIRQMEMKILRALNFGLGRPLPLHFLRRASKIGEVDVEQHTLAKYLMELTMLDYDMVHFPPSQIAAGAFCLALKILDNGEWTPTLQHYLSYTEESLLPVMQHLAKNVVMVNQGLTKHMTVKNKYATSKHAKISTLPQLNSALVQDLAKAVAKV
Experiment: CDK inhibition assay (microfluidic LabChip, IC50 format)
Assay type: biochemical
Conditions: Table 4a
Reported IC50 is given for each of the following compounds.

Field: example entries. Status: answers known.
# molecular.string, target.system, IC50
data = [
    ("O=C1NCC[C@@]12Cc1cnc(N[C@H]3CC[C@H](NC4CCOCC4)CC3)nc1N(C1CCCC1)C2=O", "CDK1/B (Homo sapiens, UniProt P06493)", "0.219 µM"),
    ("CC(C)N1CCN(c2ccc(Nc3ncc4c(n3)N(C3CCCC3)C(=O)[C@]3(CCNC3=O)C4)c(F)c2)CC1", "CDK1/B (Homo sapiens, UniProt P06493)", "> 10 µM"),
]

Tell me measured IC50 for CN1CCN(c2ccc(Nc3ncc4c(n3)N(C3CCCC3)C(=O)N([C@@H]3CCNC3)C4)cc2)CC1 please.
> 10 µM

Tell me measured IC50 for CN1CCN(c2ccc(Nc3ncc4c(n3)N(C3CCCC3)C(=O)N(c3ccccc3F)C4)cc2F)CC1 please.
> 10 µM

###

Biological target: CDK4-CYCLIND1 (Homo sapiens)
Assay: CDK inhibition assay (microfluidic LabChip, IC50 format)
Conditions: CDK4 IC50, Table 4b, upper part
Reported IC50 is given for each of the following molecules.
State just the number; it will be interpreted in nM.

# molecule, target.system, unit.descriptor, IC50
rows = [
    ("CN(C)[C@H]1CCN(c2ccc(Nc3ncc4c(n3)N(C3CCCC3)C(=O)C3(CCNC3=O)C4)cc2)C1 (stereo partly shown)", "CDK4-CYCLIND1 (Homo sapiens)", "nM", 12),
    ("CC(C)N1CCN(c2ccc(Nc3ncc4c(n3)N(C3CCCC3)C(=O)C3(CCNC3=O)C4)cc2F)CC1 (stereo not shown)", "CDK4-CYCLIND1 (Homo sapiens)", "nM", 1.5),
    ("CN(C)CCOc1ccc(Nc2ncc3c(n2)N(C2CCCC2)C(=O)C2(CCNC2=O)C3)cn1 (stereo not shown)", "CDK4-CYCLIND1 (Homo sapiens)", "nM", 10.7),
]

Tell me measured IC50 for O=C1NCCC12Cc1cnc(Nc3ccc(N4CC5(CNC5)C4)c(F)c3)nc1N(C1CCCC1)C2=O (stereo not shown) please.
2.42

Tell me measured IC50 for CN1C(=O)CC2(Cc3cnc(Nc4ccc(N5CCNCC5)cn4)nc3N(C3CCCC3)C2=O)C1=O (stereo not shown) please.
17100

Tell me measured IC50 for O=C1NCCC12Cc1cnc(Nc3ccc(N4CC5(CNC5)C4)cc3)nc1N(C1CCCC1)C2=O (stereo not shown) please.
2.12

Tell me measured IC50 for CN1C(=O)CC2(Cc3cnc(Nc4ccc(N5CCNCC5)nc4)nc3N(C3CCCC3)C2=O)C1=O (stereo not shown) please.
127

###

Target: CDK6-CYCLIND3 (Homo sapiens, UniProt Q00534)
Construct: purchased Carna
Sequence (Q00534 whole entry): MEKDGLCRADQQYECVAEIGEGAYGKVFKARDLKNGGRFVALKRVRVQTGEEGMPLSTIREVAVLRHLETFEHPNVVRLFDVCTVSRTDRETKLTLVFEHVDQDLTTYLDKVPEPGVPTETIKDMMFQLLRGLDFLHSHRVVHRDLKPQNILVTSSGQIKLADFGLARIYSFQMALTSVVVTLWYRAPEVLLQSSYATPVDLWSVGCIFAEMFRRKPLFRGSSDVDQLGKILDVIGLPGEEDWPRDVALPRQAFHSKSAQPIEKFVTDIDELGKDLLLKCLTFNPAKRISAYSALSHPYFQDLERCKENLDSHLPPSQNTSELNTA
Sequence (P30281 whole entry partner): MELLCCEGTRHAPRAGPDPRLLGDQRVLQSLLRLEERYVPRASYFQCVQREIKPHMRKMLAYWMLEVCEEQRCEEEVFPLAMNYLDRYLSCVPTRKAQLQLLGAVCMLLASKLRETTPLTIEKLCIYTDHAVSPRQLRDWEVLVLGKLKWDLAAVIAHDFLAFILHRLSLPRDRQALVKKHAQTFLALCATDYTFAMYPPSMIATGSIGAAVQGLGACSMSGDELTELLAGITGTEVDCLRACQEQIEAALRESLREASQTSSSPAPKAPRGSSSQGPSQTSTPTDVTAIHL
Assay: CDK inhibition assay (microfluidic LabChip, IC50 format)
Format: biochemical
Details: Table 4b, upper part; read-out: CDK6 IC50
readout: IC50 (nM)
State just the number; it will be interpreted in nM.

# molecule, unit.descriptor, IC50
measured = [
    ("CC(C)N1CCN(c2ccc(Nc3ncc4c(n3)N(C3CCCC3)C(=O)C3(CCNC3=O)C4)cc2F)CC1 (centres unmarked) [Example D10]", "nM", 3.53),
]

Tell me measured IC50 for CC(C)N1CCN(c2ccc(Nc3ncc4c(n3)N(C3CCCC3)C(=O)C3(CC(=O)N(C)C3=O)C4)cn2)CC1 (centres unmarked) [Example D26] please.
311

Tell me measured IC50 for O=C1NCCC12Cc1cnc(Nc3ccc(N4CC5(CNC5)C4)c(F)c3)nc1N(C1CCCC1)C2=O (centres unmarked) [Example D43] please.
4.95

Tell me measured IC50 for CN(C)[C@H]1CCN(c2ccc(Nc3ncc4c(n3)N(C3CCCC3)C(=O)C3(CCNC3=O)C4)cc2F)C1 (some centres unmarked) [Example D45] please.
5.46

###

Reported IC50 is given for each of the following compounds.
Target: CDK6-CYCLIND3 (Homo sapiens, UniProt Q00534)
Construct: purchased Carna
Experiment: CDK inhibition assay (microfluidic LabChip, IC50 format)
Type: biochemical
Details: Table 3; second value of the cell CDK4/CDK6; value of the racemate; read-out: Racemate Activity CDK6
State just the number; it will be interpreted in nM.

Field: example entries. Status: answers known.
# compound, reported.value
data = [
    ("CC(C)N1CCN(c2ccc(Nc3ncc4c(n3)N(C3CCCC3)C(=O)C3(CCNC3=O)C4)cc2F)CC1 (stereo not shown) [Example D10]", 3.5),
    ("CN1CCN(c2ccc(Nc3ncc4c(n3)N(C3CCCC3)C(=O)C3(CCNC3=O)C4)cc2F)CC1 (stereo not shown) [Example D12]", 2.9),
    ("O=C1NCCC12Cc1cnc(Nc3ccc(N4CCNCC4)c(F)c3)nc1N(C1CCCC1)C2=O (stereo not shown) [Example D11]", 3.5),
]

Below: the item to evaluate.
State IC50 on CDK6-CYCLIND3 (Homo sapiens, UniProt Q00534). Entry: O=C1NCCC12Cc1cnc(Nc3ccc(N4CCNCC4)cc3)nc1N(C1CCCC1)C2=O (stereo not shown) [Example D3]
6.03

###

Reported IC50 is given for each of the following compounds.
Molecular target: CDK4-CYCLIND1 (Homo sapiens, UniProt P11802)
Sequence (P11802 whole entry): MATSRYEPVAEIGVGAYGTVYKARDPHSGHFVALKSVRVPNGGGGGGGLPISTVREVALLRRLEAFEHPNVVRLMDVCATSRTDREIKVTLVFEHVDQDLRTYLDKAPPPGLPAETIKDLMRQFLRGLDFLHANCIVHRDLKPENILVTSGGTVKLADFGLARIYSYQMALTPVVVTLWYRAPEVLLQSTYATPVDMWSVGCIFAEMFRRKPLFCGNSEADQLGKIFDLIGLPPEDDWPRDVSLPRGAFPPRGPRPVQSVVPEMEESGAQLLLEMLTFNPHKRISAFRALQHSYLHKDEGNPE
Sequence (P24385 whole entry partner): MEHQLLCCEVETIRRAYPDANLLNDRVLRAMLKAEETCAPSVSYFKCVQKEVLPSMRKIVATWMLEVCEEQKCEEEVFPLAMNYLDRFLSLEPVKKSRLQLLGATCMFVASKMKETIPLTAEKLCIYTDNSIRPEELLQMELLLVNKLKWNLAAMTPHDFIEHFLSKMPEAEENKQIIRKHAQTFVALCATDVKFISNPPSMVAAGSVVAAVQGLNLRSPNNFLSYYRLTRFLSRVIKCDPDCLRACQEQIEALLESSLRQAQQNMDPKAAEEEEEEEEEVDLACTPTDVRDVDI
Assay: CDK inhibition assay (microfluidic LabChip, IC50 format)
Settings: CDK4 CyclinD1 IC50, Table 4a; a second value in parentheses for some compounds
State just the number; it will be interpreted in nM.

Field: example entries. Status: answers known.
# molecular.string, unit.descriptor, IC50
rows = [
    ("O=C1NCC[C@@]12Cc1cnc(Nc3ccc(N4CC5(CNC5)C4)cc3)nc1N(C1CCCC1)C2=O", "nM", 2.72),
    ("CN(C)CCOc1ccc(Nc2ncc3c(n2)N(C2CCCC2)C(=O)[C@]2(CCNC2=O)C3)cc1", "nM", 1.27),
    ("Cc1cc(Nc2ncc3c(n2)N(C2CCCC2)C(=O)[C@]2(CCNC2=O)C3)ccc1N1CCN(C(C)C)CC1", "nM", 1.04),
]

Tell me measured IC50 for CC(C)N1CCN(c2ccc(Nc3ncc4c(n3)N(C3CCCC3)C(=O)[C@]3(CCNC3=O)C4)cc2)CC1 please.
0.784

Tell me measured IC50 for O=C1NCC[C@@]12Cc1cnc(Nc3ccc(OCCN4CCCC4)c(F)c3)nc1N(C1CCCC1)C2=O please.
1.79

Tell me measured IC50 for COc1cc(Nc2ncc3c(n2)N(C2CCCC2)C(=O)[C@]2(CCNC2=O)C3)ccc1N1CCN(C(C)C)CC1 please.
1.29

Tell me measured IC50 for CC(C)N1CCN(c2ccc(Nc3ncc4c(n3)N(C3CCCC3)C(=O)[C@]3(CCNC3=O)C4)nc2)CC1 please.
2.05

Tell me measured IC50 for COc1cc(N2CCNCC2)ccc1Nc1ncc2c(n1)N(C1CCCC1)C(=O)[C@]1(CCNC1=O)C2 please.
29.2

Tell me measured IC50 for O=C1NCC[C@@]12Cc1cnc(N[C@H]3CC[C@H](NC4CCOCC4)CC3)nc1N(C13CC(C1)C3)C2=O please.
33.3

Tell me measured IC50 for Cc1cc(N2CCNCC2)ccc1Nc1ncc2c(n1)N(C1CCCC1)C(=O)[C@]1(CCNC1=O)C2 please.
5.34

###

Experiment: Pharmacokinetics after oral administration
Assay type: in vivo
Conditions: rat, plasma; rats; oral administration 100 mg/kg; N = 3
Reported MRT is given for each of the following compounds.
State just the number; it will be interpreted in h.

# molecular.string, unit.descriptor, MRT
records = [
    ("CN(C)CCOc1ccc(Nc2ncc3c(n2)N(C2CCCC2)C(=O)[C@]2(CCNC2=O)C3)cc1", "h", 2.99),
    ("CN1CCN(c2ccc(Nc3ncc4c(n3)N(C3CCCC3)C(=O)[C@]3(CCNC3=O)C4)cc2F)CC1", "h", 5.48),
]

Below: the item to evaluate.
Tell me measured MRT for CC(C)N1CCN(c2ccc(Nc3ncc4c(n3)N(C3CCCC3)C(=O)[C@]3(CCNC3=O)C4)cc2)CC1 please.
4.37

###

Reported IC50 is given for each of the following compounds.
Target: CDK7 CyclinH (Homo sapiens, UniProt P50613)
Sequence (P50613 whole entry): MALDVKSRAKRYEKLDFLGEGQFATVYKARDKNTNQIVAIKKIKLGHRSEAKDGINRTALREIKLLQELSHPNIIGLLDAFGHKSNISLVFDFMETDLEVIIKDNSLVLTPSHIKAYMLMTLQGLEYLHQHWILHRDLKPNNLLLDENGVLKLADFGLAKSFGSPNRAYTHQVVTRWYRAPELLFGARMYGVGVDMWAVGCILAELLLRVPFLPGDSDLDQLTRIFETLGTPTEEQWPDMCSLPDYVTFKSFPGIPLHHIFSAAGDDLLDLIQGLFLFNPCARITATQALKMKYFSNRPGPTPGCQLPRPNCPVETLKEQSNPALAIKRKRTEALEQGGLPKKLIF
Sequence (P51946 whole entry partner): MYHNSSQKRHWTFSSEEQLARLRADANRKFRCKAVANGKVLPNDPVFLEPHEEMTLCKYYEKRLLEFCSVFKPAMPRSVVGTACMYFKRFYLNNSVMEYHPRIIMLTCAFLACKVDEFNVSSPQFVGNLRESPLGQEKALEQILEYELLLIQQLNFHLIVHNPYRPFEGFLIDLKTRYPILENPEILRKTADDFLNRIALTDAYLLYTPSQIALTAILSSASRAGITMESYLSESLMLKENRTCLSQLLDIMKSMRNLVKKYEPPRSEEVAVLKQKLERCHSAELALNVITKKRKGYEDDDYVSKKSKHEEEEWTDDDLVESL
Sequence (P51948 whole entry partner): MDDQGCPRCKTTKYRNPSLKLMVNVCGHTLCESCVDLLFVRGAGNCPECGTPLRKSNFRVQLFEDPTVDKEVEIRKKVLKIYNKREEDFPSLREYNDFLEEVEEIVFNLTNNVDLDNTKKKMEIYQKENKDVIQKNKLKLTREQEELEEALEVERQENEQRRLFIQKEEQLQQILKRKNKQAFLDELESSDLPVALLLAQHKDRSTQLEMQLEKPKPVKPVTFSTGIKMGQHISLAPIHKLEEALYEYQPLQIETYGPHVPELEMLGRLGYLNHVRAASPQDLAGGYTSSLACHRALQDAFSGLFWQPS
Assay: CDK inhibition assay (microfluidic LabChip, IC50 format)
Assay type: biochemical
Settings: Table 4a

Tell me measured IC50 for COc1cc(Nc2ncc3c(n2)N(C2CCCC2)C(=O)[C@]2(CCNC2=O)C3)ccc1N1CCNCC1 please.
318 nM

###

System: MMXF U-266
Assay: 2D cell proliferation assay (CellTiter-Blue)
Assay type: cell-based
Conditions: Homo sapiens, 72 h, three days of treatment, read-out: abs. IC50
readout: pIC50
pIC50 here: minus log base 10 of the concentration, concentration in moles per litre.

# compound, pIC50
records = [
    ("CC(C)N1CCN(c2ccc(Nc3ncc4c(n3)N(C3CCCC3)C(=O)[C@]3(CCNC3=O)C4)nc2)CC1 [Example D154]", 4.10),
    ("CN(C)[C@H]1CCN(c2ccc(Nc3ncc4c(n3)N(C3CCCC3)C(=O)[C@]3(CCNC3=O)C4)nc2)C1 [Example D178]", 4.21),
    ("O=C1NCC[C@@]12Cc1cnc(Nc3ccc(N4CCNCC4)cc3F)nc1N(C1CCCC1)C2=O [Example D146]", 5.34),
]

Tell me measured pIC50 for CN(C)CCOc1ccc(Nc2ncc3c(n2)N(C2CCCC2)C(=O)[C@]2(CCNC2=O)C3)cc1 [Example D179] please.
6.09

Entry source: patent US20230048132A1
